System under test: T1, recombinant SARS-CoV-2 Spike RBD domain, Delta variant (SARS-CoV-2)
T1 construct: also called RBD Delta variant
Assay: ELISA on coated RBD
Measured endpoint: Binding AUC
Write the number on its own, no unit after it.

Some entries whose results are on file:
Binder	Reading
SPK002M A1 antibody (antibody, human IgG1, kappa, V domains shown) VH: EVQLVESGGGLIQPGGSLRLSCAASTITVTSNYMSWVRQAPGKGLEWVSVIYPGGSTFYADSVKGRFTISADNSKNTLYLQMNSLRAEDTAVYYCARDLVVYGMDVWGQGTTVTVSS VL: EIVLTQSPGTLSLSPGERATLSCRASQGFSSSYLAWYQQKPGQAPRLLIYGASSRATGIPGRFSGSGSGTDFTLTISRLEPEDFAVYYCQQGVTFGGGTKVEIKR	31
SPK002M B2 antibody (antibody, human IgG1, kappa, V domains shown) VH: EVQLVESGGGLIQPGGSLRLSCAASIITVTSNYMSWVRQAPGKGLEWVSVIYPGGSTFYADSVKGRFTISYDNSKNTLYLQMNSLRAEDTAVYYCARDLVVYGMDVWGQGTTVTVSS VL: EIVLTQSPGTLSLSPGERATLSCRASQSVSSSYLAWYQQKPGQAPRLLIYGASSRATGIPGRFSGSGSGTDFTLTISRLEPEDFAIYYCQQGVTFGGGTKVEIKR	32

Documented Binding AUC of SPK002M C2 antibody (antibody, human IgG1, kappa, V domains shown) VH: EVQLVESGGGLIQPGGSLRLSCAASIITVTSNYMSWVRQAPGKGLEWVSVAYPGGSTFYADSVKGRFTISTDNSKNTLYLQMNSLRAEDTAVYYCARDLVVYGMDVWGQGTTVTVSS VL: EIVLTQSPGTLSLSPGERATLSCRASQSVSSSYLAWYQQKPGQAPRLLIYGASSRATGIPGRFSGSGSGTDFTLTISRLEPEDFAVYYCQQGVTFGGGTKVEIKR : 32
